// data source = patent US7718673B2

Molecular target: Human αvβ3 (Homo sapiens, UniProt P05106+P06756)
Construct: purchased Chemicon International Inc., Temecula, Calif
Sequence (P06756 31-889 limits assumed): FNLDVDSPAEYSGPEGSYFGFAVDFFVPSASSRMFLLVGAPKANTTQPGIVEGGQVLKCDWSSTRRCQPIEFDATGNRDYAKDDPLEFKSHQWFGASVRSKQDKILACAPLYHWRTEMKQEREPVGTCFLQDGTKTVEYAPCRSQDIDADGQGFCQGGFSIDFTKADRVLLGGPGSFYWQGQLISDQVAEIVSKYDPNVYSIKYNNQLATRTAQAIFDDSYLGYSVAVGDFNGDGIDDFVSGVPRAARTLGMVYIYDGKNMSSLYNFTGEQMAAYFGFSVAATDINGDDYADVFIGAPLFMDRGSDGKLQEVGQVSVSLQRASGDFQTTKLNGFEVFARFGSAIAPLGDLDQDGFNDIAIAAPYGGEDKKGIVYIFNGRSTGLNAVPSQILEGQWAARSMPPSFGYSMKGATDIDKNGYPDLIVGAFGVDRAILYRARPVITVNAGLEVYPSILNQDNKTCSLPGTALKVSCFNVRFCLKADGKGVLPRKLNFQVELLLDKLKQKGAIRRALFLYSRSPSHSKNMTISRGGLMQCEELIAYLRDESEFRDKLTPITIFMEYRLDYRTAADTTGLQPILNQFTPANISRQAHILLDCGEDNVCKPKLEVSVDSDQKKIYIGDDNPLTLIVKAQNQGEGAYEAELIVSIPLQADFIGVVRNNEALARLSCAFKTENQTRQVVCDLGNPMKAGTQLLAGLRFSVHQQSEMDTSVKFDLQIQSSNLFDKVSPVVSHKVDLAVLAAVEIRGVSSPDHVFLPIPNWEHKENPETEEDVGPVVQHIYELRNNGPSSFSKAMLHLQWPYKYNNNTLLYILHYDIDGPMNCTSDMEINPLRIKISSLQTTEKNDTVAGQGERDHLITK
Sequence (P06756 891-1048 partner limits assumed): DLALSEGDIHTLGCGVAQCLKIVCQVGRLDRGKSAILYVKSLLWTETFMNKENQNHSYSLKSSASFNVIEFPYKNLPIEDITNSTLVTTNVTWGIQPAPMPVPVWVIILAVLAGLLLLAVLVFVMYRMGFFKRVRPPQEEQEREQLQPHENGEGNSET
Sequence (P05106 27-788): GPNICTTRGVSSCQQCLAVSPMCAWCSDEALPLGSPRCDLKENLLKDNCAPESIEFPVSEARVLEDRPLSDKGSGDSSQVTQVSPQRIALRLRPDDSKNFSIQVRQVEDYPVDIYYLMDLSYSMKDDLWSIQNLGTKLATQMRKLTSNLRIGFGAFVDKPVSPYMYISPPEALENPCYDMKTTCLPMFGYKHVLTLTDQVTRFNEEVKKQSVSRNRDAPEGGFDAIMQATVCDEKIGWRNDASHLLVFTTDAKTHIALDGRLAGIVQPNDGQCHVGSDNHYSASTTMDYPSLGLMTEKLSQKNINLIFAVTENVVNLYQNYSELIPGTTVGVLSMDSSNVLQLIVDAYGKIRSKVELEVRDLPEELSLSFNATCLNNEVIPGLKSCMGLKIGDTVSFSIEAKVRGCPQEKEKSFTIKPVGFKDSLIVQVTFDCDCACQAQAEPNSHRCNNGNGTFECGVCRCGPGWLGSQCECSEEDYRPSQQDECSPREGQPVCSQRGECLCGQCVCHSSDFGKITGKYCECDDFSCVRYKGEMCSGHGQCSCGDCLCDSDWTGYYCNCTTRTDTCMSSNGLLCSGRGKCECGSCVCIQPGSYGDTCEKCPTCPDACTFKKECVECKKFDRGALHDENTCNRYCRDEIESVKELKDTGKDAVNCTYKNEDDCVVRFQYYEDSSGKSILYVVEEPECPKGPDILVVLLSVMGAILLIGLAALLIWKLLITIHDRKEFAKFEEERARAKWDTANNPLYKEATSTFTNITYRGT
Experiment: In vitro solid phase purified αvβ3 binding assay (vitronectin/αvβ3)
Settings: vitronectin binding to immobilized αvβ3; read-out: αvβ3 IC50
From the text: In Vitro Solid Phase Purified αvβ3 Binding Assay The vitronectin/αvβ3 binding assay methods were derived from Mehta et al. (Biochem J. 1998, 330, 861). […] Plates were read at 490 nm on a Molecular Devices (Sunnyvale, Calif.) microplate reader.
Measured IC50 values are reported for all entries that follow.
ATTRIBUTE MEASURED: IC50 (µM)

>  <COMPOUND>
O=C(N[C@@H](CNC(=O)C1CCN(C(=O)CCNC2=NCCN2)CC1)C(=O)O)OCc1ccccc1 [Compound 12]

>  <TESTED ON>
Human αvβ3 (Homo sapiens, UniProt P05106+P06756)

>  <ATTRIBUTE MEASURED>
IC50

>  <VALUE COMPARATOR>
=

>  <TEST VALUE>
0.02

$$$$
>  <COMPOUND>
O=C(O)CC(NC(=O)C1CCN(C(=O)CCCNC2=NCCN2)CC1)c1cccc(F)c1 (stereo not shown) [Compound 32]

>  <TESTED ON>
Human αvβ3 (Homo sapiens, UniProt P05106+P06756)

>  <ATTRIBUTE MEASURED>
IC50

>  <VALUE COMPARATOR>
=

>  <TEST VALUE>
0.12

$$$$
>  <COMPOUND>
O=C(O)CC(NC(=O)C1CCN(C(=O)CCCNC2=NCCN2)CC1)c1cc(F)cc(F)c1 (stereo not shown) [Compound 38]

>  <TESTED ON>
Human αvβ3 (Homo sapiens, UniProt P05106+P06756)

>  <ATTRIBUTE MEASURED>
IC50

>  <VALUE COMPARATOR>
>

>  <TEST VALUE>
0.3

$$$$
>  <COMPOUND>
O=C(N[C@@H](CNC(=O)C1CCN(C(=O)/C=C/CNC2=NCCN2)CC1)C(=O)O)OCc1ccccc1 [Compound 55]

>  <TESTED ON>
Human αvβ3 (Homo sapiens, UniProt P05106+P06756)

>  <ATTRIBUTE MEASURED>
IC50

>  <VALUE COMPARATOR>
=

>  <TEST VALUE>
0.012

$$$$
>  <COMPOUND>
O=C(N[C@@H](CNC(=O)C1CCN(C(=O)CC(CNC2=NCCN2)c2ccc(Cl)cc2)CC1)C(=O)O)OCc1ccccc1 (stereo partly shown) [Compound 18]

>  <TESTED ON>
Human αvβ3 (Homo sapiens, UniProt P05106+P06756)

>  <ATTRIBUTE MEASURED>
IC50

>  <VALUE COMPARATOR>
=

>  <TEST VALUE>
0.05

$$$$
>  <COMPOUND>
COc1ccc(C(CC(=O)O)NC(=O)C2CCN(C(=O)CCCNC3=NCCN3)CC2)cc1OC (stereo not shown) [Compound 34]

>  <TESTED ON>
Human αvβ3 (Homo sapiens, UniProt P05106+P06756)

>  <ATTRIBUTE MEASURED>
IC50

>  <VALUE COMPARATOR>
=

>  <TEST VALUE>
0.029

$$$$
>  <COMPOUND>
O=C(N[C@@H](CNC(=O)C1CCN(C(=O)CCCNC2=NCCN2)CC1)C(=O)O)OCc1ccccc1 [Compound 2]

>  <TESTED ON>
Human αvβ3 (Homo sapiens, UniProt P05106+P06756)

>  <ATTRIBUTE MEASURED>
IC50

>  <VALUE COMPARATOR>
=

>  <TEST VALUE>
0.0058

$$$$
